These measurements were taken from the kinase profiling compilation of Christmann-Franck et al. (2016).

biological target: EPHA4 (human) (UniProt P54764); assay: KINOMEscan competition binding; conditions: compound 10.0 µM
Sequence (P54764 whole entry, looked up): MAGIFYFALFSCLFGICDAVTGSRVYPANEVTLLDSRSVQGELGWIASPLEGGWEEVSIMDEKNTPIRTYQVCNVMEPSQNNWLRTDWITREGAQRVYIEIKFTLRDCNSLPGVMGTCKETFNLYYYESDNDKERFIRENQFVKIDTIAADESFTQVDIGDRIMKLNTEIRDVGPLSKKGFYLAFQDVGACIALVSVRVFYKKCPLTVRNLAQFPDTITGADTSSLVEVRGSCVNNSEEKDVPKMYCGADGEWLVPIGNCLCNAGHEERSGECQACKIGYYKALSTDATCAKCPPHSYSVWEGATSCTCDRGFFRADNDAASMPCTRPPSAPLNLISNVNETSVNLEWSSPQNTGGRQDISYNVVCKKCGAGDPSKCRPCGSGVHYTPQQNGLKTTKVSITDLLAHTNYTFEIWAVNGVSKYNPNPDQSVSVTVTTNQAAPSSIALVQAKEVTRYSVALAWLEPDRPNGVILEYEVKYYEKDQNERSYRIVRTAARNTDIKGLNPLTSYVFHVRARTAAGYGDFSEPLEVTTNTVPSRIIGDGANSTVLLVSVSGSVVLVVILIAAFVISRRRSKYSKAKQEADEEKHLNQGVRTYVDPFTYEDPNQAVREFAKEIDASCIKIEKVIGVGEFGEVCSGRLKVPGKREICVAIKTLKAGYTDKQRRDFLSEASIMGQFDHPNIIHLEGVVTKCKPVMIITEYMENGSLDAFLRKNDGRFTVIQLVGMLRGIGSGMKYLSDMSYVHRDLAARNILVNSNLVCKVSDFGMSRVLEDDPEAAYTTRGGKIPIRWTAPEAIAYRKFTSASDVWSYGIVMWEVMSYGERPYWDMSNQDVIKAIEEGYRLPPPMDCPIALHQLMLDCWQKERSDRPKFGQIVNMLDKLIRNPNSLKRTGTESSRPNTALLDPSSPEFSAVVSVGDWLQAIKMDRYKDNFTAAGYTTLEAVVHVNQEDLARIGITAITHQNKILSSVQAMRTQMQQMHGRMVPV
measurement-name: kinase still bound, per cent of control

smiles-representation: CCS(=O)(=O)Nc1ccc2c(c1)[C@H](/C(=N/c1ccc(CN3CCCCC3)cc1)c1ccccc1)C(=O)N2
kinase still bound, per cent of control: 3.6%
//
smiles-representation: Cc1ccc(O)cc1Nc1ccnc(Nc2cccc(C(N)=O)c2)n1
kinase still bound, per cent of control: 0%
//
smiles-representation: NC(=O)Nc1sc(-c2ccc(F)cc2)cc1C(N)=O
kinase still bound, per cent of control: no effect (inactive)
//
smiles-representation: NC(=O)c1ccc(Nc2cc(-c3ccc(F)cc3)[nH]n2)cc1
kinase still bound, per cent of control: no effect (inactive)
//
smiles-representation: CN(C)c1ccc(-c2cc3ncccc3c(NCCCCN)n2)cc1
kinase still bound, per cent of control: no effect (inactive)
//
smiles-representation: O=C(Nc1n[nH]c2nc(-c3cccc(O)c3)ccc12)C1CC1
kinase still bound, per cent of control: no effect (inactive)
//
smiles-representation: CC(=O)c1c(-c2ccncc2)[nH]c(-c2ccncc2)c1C
kinase still bound, per cent of control: no effect (inactive)

API: the following record is the query input.
[Q] Would you kindly share the measured kinase still bound, per cent of control for `O=C1Nc2ccccc2/C1=C/c1ccc[nH]1` ?
[A] no effect (inactive)

====

biological target: UniProtKB Q9HBH9; test: KINOMEscan competition binding; conditions: compound 10.0 µM
Sequence (Q9HBH9 whole entry, looked up): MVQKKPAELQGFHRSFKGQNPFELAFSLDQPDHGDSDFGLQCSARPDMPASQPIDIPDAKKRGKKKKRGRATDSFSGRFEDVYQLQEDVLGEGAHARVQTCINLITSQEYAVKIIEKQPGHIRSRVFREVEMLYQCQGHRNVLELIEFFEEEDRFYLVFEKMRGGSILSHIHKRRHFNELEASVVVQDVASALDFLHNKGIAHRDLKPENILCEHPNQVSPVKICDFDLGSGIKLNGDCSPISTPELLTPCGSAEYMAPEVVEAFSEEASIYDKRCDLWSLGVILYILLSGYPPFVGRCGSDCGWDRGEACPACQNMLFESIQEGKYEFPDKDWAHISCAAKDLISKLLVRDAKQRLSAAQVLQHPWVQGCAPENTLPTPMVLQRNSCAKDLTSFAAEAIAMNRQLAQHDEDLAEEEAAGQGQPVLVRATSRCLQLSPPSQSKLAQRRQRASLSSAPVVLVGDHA
measurement-name: kinase still bound, per cent of control

smiles-representation: CCS(=O)(=O)Nc1ccc2c(c1)[C@H](/C(=N/c1ccc(CN3CCCCC3)cc1)c1ccccc1)C(=O)N2
kinase still bound, per cent of control: 2.1%
//
smiles-representation: Cc1ccc(NC(=O)c2cccc(N3CCCCC3)c2)cc1-c1ccc(C(=O)NCC2CC2)cc1
kinase still bound, per cent of control: no effect (inactive)
//
smiles-representation: O=C1Nc2ccccc2/C1=C/c1ccc[nH]1
kinase still bound, per cent of control: no effect (inactive)
//
smiles-representation: Cc1cc(Nc2cc(N3CCN(C)CC3)nc(Sc3ccc(NC(=O)C4CC4)cc3)n2)[nH]n1
kinase still bound, per cent of control: no effect (inactive)

[Q] Would you kindly share the measured kinase still bound, per cent of control for `Cc1ccc(C(=O)Nc2cccc(C(C)(C)C)c2)cc1-c1ccc(C(=O)NCC2CC2)cc1` ?
[A] no effect (inactive)

====

molecular target: LTK (human); assay: KINOMEscan competition binding; conditions: compound 10.0 µM
measurement-name: kinase still bound, per cent of control

smiles-representation: CCS(=O)(=O)Nc1ccc2c(c1)[C@H](/C(=N/c1ccc(CN3CCCCC3)cc1)c1ccccc1)C(=O)N2
result: 0%
//
smiles-representation: O=C(Nc1n[nH]c2nc(-c3cccc(O)c3)ccc12)C1CC1
result: no effect (inactive)
//
smiles-representation: CC(=O)c1c(-c2ccncc2)[nH]c(-c2ccncc2)c1C
result: no effect (inactive)
//
smiles-representation: Cc1ccc(O)cc1Nc1ccnc(Nc2cccc(C(N)=O)c2)n1
result: no effect (inactive)

[Q] Would you kindly share the measured kinase still bound, per cent of control for `N#Cc1ccc(-c2cnc3[nH]cc(NC(=O)c4cccnc4)c3c2)cc1` ?
[A] no effect (inactive)

====

target: CDK16 (human) (UniProt Q00536); assay: KINOMEscan competition binding; conditions: compound 10.0 µM
Sequence (Q00536 whole entry, looked up): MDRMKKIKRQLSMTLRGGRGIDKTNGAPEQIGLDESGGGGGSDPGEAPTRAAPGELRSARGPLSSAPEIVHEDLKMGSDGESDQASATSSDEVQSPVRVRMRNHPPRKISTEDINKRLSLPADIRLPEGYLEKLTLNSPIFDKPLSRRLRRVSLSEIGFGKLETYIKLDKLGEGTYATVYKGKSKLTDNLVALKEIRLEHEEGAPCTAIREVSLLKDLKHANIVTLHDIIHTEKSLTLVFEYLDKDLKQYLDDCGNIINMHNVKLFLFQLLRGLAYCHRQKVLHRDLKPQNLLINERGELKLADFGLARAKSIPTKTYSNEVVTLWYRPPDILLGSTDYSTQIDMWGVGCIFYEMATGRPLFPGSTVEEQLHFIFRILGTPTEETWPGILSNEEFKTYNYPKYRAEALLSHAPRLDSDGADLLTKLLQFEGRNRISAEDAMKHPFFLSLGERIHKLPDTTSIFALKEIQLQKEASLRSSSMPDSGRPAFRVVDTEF
measurement-name: kinase still bound, per cent of control

smiles-representation: CN(C)c1ccc(-c2cc3ncccc3c(NCCCCN)n2)cc1
result: no effect (inactive)

smiles-representation: Cc1ccc(O)cc1Nc1ccnc(Nc2cccc(C(N)=O)c2)n1
result: no effect (inactive)

smiles-representation: Cc1ccc(C(=O)Nc2cccc(C(C)(C)C)c2)cc1-c1ccc(C(=O)NCC2CC2)cc1
result: no effect (inactive)

smiles-representation: CCS(=O)(=O)Nc1ccc2c(c1)[C@H](/C(=N/c1ccc(CN3CCCCC3)cc1)c1ccccc1)C(=O)N2
result: 0%

[Q] Would you kindly share the measured kinase still bound, per cent of control for `O=C1Nc2ccccc2/C1=C/c1ccc[nH]1` ?
[A] 0%

[Q] Would you kindly share the measured kinase still bound, per cent of control for `NC(=O)c1ccc(Nc2cc(-c3ccc(F)cc3)[nH]n2)cc1` ?
[A] 0%
